Data origin, for the record: the supplement of paper PMC9170038

Tested on: MS2 coat protein
Assay: apparent KD of MS2 coat protein; designed switch direction (-1 OFF switch, 1 ON switch): -1; higher = weaker reporter binding
Conditions: input ligand: none
I would appreciate it if you labelled entries Satisfied when apparent KD of MS2 coat protein is 40 nM or higher, otherwise Not satisfied.

Solved entries (count: 2):
sequence entry: UUUUUGUCAGGAUAUGCAUGUUUUUUUUUUUUUUUUUUCAUGCAGAAGGGACAUGAGGAUCACCCAUGUAGUUU [Ex4 - 3 - 10] (Eterna round: R96, puzzle: Exclusion 4)
class assignment: Satisfied

sequence entry: GUCAGCUCGUGAGGAUAUACAUGCGUGCUUCGGCACGUAUGAUAGAUCACAUGAGGAUCACCCAUGUAGAAGGUACGAGCUGAC [ENG2/4-C1] (Eterna round: R96, puzzle: Exclusion NG 2)
class assignment: Not satisfied

Exercise: Is apparent KD of MS2 coat protein at least 40 nM? Consider GGUCCACAUGAGGAUCACCCAUGUUAGGAUAUCUCCCGCCUCCUCACUGGAGACGGACAGAGAAGGAACAUCAA [Vetibele] (Eterna round: R96, puzzle: Exclusion 1)
Solution: Not satisfied

Exercise: Hi, just wondering whether GGCACACAUGAGGAUCACCCAUGUGAGGAUAUGGUGCGAUCGUCGAUAGACGAUAGCACCAGAAGGCACAUGCC [Mat - Exclusion 1 - Eli Mod - D5] (Eterna round: R97, puzzle: Exclusion 1) shows apparent KD of MS2 coat protein of 40 nM or higher.
Solution: Not satisfied

Exercise: State whether the measured apparent KD of MS2 coat protein reaches 40 nM, counting equality as reaching it, for AGGGAGCGAGGAUAUACAGAGUAAGAAACUACUCCCUCAGUACAUGAGGAUCACCCAUGUAGAAGGCGCCCGAC [EX2 A.2] (Eterna round: R97, puzzle: Exclusion 2)
Solution: Not satisfied

Exercise: Could you tell me if the measured apparent KD of MS2 coat protein of AUGAUACAUGAGGAUCACCCAUGUGAGGAUAUGAAGUUAUAAUACAUACUAUACAUCUUCAGAAGGCAUAUGUG [E1 S1 6/16] (Eterna round: R97, puzzle: Exclusion 1) reaches 40 nM or more?
Solution: Satisfied

Exercise: # check: apparent KD of MS2 coat protein of AUUGUUUGAUACCUCUAAUACAUGAGGAUCACCCAUGUUAUCGAGGAUAUGCAGAAUAGAUUAGAGCAGAAGGCGAAGUAAUAU [JR_ExcNG3_Sub026] (Eterna round: R96, puzzle: Exclusion NG 3) is greater than or equal to 40 nM
Solution: Not satisfied

Exercise: Tell me whether apparent KD of MS2 coat protein is at least 40 nM here: GUCAGACGAGGAUAUAGAUUUAAGUACAUGAGGAUCACCCAUGUGCAUAUGUAUUUAGAUUUAGAAGGCGUCUGAC [E5/18-A3] (Eterna round: R97, puzzle: Exclusion 5)
Solution: Satisfied

Exercise: Determine whether this sequence has apparent KD of MS2 coat protein no lower than 40 nM: AACCGUCGUCAGGAUAUUUGCCAGGAUUCUAGCGAAGAAGGGACGACAUGAGGAUCACCCAUGUUGGCCACUCG [EX6 B.26] (Eterna round: R97, puzzle: Exclusion 6)
Solution: Not satisfied

Exercise: Does apparent KD of MS2 coat protein meet or surpass 40 nM for CCCAGUUAUGAAGGAUAUUGUACAUGAGGAUCACCCAUGUAAUAAAUGAGGAUUUCGGGUGUCUACAAGAAGGUCAGGAUAGGC [Ostracism 14 - Jieux - Exclusion NG 2] (Eterna round: R96, puzzle: Exclusion NG 2) ?
Solution: Satisfied
